- target system: serum proteins
- assay protocol: 90% serum, 30 kDa ultrafiltration, HPLC
assay endpoint: Protein binding (%)

GFCWNVCVYRHGVRVCHRRCN [SEQ ID NO: 232] :: 85
GFCWHVCSKRNGLRVCYRRCN [SEQ ID NO: 396] :: 92
GFCWKVCVYRNGVRVCYRRCN [SEQ ID NO: 10] :: 64
GFCWKVCARRNGARSCYRRCN [SEQ ID NO: 504] :: 95

1. GFCWRVCAYSNGKRVCYRRCN [SEQ ID NO: 425]
2. GFCWNVCVYRNGVRVCHRRCW [SEQ ID NO: 291]
3. GFCWNVCVYRNGHRVCHRRCN [SEQ ID NO: 237]
# sort list by recorded Protein binding (%), greatest to least Ranked list of labels, please, in the requested order. 2, 1, 3

Where these numbers come from: patent US20150031601A1
